test system: MDA-N; experiment: NCI tumour cell line growth inhibition, 48 h
Calls of active or inactive are those of the source. Cut-off read from the data, not from the text of the source: active = GI50 up to about 1.1 µM and inactive = higher.
Outcomes: active, inactive

>  <molecule>
N#CC(c1ccccc1)N(CCc1ccccc1)C(=O)c1ccccc1 (configuration not stated)

>  <discrete label>
inactive

$$$$
>  <molecule>
Cc1nn(C(=O)c2ccccc2O)c2c1C(c1ccccc1)SC(=N)N2 (configuration not stated)

>  <discrete label>
inactive

$$$$
>  <molecule>
Cn1c(N)cc(=O)nc1N

>  <discrete label>
inactive

$$$$
>  <molecule>
CCOC(=O)Cn1c(C(F)(F)F)nc2nc(Cl)c(Cl)nc21

>  <discrete label>
inactive

$$$$
>  <molecule>
Cc1cccc2c1NC(=S)[C@@H]1CCCN1C2=O

>  <discrete label>
inactive

$$$$
>  <molecule>
O=C(NCCCNCCNC(=O)c1cc(-c2ccccc2)nc2ccccc12)c1cc(-c2ccccc2)nc2ccccc12

>  <discrete label>
inactive

$$$$
>  <molecule>
COc1cc(C2c3cc4c(cc3OC(NNc3ccccc3)C2C)OCO4)cc(OC)c1OC (configuration not stated)

>  <discrete label>
active

$$$$
